Origin of measurements: patent US8853193B2

Target: UniProt:Q9HBH9
Experiment: Mnk2a in vitro kinase assay (indirect competitive fluorescence polarization)
Settings: pre-activated GST-Mnk2a 2.5 nM, 20 μM ATP, 30 μM substrate peptide; read-out: MNK2 IC50
Experimental: Inhibitory potency of compounds against Mnk1, Mnk2a and other kinases was assessed with assays based on a format known to those skilled in the art as the indirect (competitive) fluorescence polarization. The assay detection system comprises a small fluorophore-labeled phospho-peptide (termed ligand) bound to a phospho-specific antibody. […] In brief, the open reading frames of human Mnk1 and Mnk2a were amplified from cDNA using the forward/reverse primer pairs […]
Where a name gives a salt, the structure may show the parent alone.
Readout Type: IC50 (nM)

Molecule	IC50 [nM]
COC(=O)c1sc2ncnc(Nc3ccc(F)cc3OC(C)CN)c2c1C (centres unmarked) [Compound 2-1, trifluoroacetate]	70
Cc1c(C(N)=O)sc2ncnc(Nc3ccc(F)cc3O[C@@H](C)CN)c12 (racemic) [Compound 6-2, trifluoroacetate]	90
Cc1c(C(=O)O)sc2ncnc(Nc3ccc(F)cc3OCC(C)F)c12 (centres unmarked)	12
Cc1c(C(=O)NCC2COCCN2)sc2ncnc(Nc3cccnc3OC(C)C)c12 (centres unmarked)	64

[P] Cc1c(C(=O)N[C@H]2C[C@@H]2N)sc2ncnc(Nc3cccnc3OC(C)C)c12
[Q] COC(=O)c1sc2ncnc(Nc3ccc(F)cc3OC(C)CCNC(C)=O)c2c1C (centres unmarked)
[R] COC(=O)c1sc2ncnc(Nc3ccc(F)cc3OC(C)CCNS(C)(=O)=O)c2c1C (centres unmarked)
[S] Cc1c(C(=O)NCCCN(C)C)sc2ncnc(Nc3cccnc3OC(C)C)c12
Exercise: Sort these molecules on IC50 so the largest reading comes first. Give your ranking as a list of the labels in the requested order.
Key: Q, R, P, S
(Q: 471 nM, R: 90 nM, P: 55 nM, S: 29 nM)

[P] Cc1c(C(=O)NCCO)sc2ncnc(Nc3ccc(F)cc3OC(C)CN)c12 (centres unmarked)
[Q] Cc1c(C(=O)NCC#CCN(C)C)sc2ncnc(Nc3cccnc3OC(C)C(F)(F)F)c12 (centres unmarked)
[R] COC(=O)c1sc2ncnc(Nc3ccc(F)cc3OCCN)c2c1C [Compound 9-2, hydrochloride]
Exercise: Rank items: key IC50, increasing. A ranking is expressed here by listing the labels in the requested order.
Key: Q, P, R

---

Target: human Mnk2a (Homo sapiens (Human))
Sequence (Q9HBH9 whole entry): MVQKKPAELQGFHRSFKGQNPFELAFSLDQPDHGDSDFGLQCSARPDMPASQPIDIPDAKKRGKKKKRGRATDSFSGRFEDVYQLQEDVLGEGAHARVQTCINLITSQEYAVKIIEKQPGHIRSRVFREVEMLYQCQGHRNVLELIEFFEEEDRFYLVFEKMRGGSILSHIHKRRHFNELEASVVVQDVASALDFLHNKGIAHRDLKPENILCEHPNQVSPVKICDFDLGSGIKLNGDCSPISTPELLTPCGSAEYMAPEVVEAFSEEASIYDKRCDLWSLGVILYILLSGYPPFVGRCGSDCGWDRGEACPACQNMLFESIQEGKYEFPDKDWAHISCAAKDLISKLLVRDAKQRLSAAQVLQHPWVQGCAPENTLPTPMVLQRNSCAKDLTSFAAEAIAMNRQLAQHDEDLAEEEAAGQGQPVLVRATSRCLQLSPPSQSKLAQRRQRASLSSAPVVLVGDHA
Assay: Mnk2a in vitro kinase assay (indirect competitive fluorescence polarization)
Conditions: pre-activated GST-Mnk2a 2.5 nM, 20 μM ATP, 30 μM substrate peptide; read-out: MNK2 IC50
Procedure: Inhibitory potency of compounds against Mnk1, Mnk2a and other kinases was assessed with assays based on a format known to those skilled in the art as the indirect (competitive) fluorescence polarization. The assay detection system comprises a small fluorophore-labeled phospho-peptide (termed ligand) bound to a phospho-specific antibody. […] In brief, the open reading frames of human Mnk1 and Mnk2a were amplified from cDNA using the forward/reverse primer pairs […]
pIC50: −log10 of the molar value.
Readout Type: pIC50

Answered examples (6):
Compound	pIC50
Cc1c(C(=O)NCCCN(C)C)sc2ncnc(Nc3ccc(F)cc3OC(C)CNC(=O)OC(C)(C)C)c12 (stereo not shown) [Compound 1-4]	6.53
Cc1c(C(=O)O)sc2ncnc(Nc3cccnc3OCC(F)F)c12 [Compound 30-2]	7.70
Cc1c(C(=O)NCCCN2CCCC2)sc2ncnc(Nc3cccnc3OC(C)C)c12 [Compound 36-1]	7.46
Cc1c(C(=O)NCCO)sc2ncnc(Nc3ccc(F)cc3OC(C)C(=O)NCCCN)c12 (stereo not shown) [Compound 57]	6.96
COC(=O)c1sc2ncnc(Nc3ccc(F)cc3OC(CN)CN)c2c1C [Compound 18-2, bis(trifluoroacetate)]	6.16
Cc1c(C(=O)O)sc2ncnc(Nc3ccc(F)cc3OC(C)CF)c12 (stereo not shown) [Compound 32.7]	8.30

[P] COC(=O)c1sc2ncnc(Nc3ccc(F)cc3OC(C)CNS(C)(=O)=O)c2c1C (stereo not shown) [Compound 3-1]
[Q] Cc1c(C(=O)NCCCN(C)C)sc2ncnc(Nc3ccc(F)cc3OCC(F)(F)F)c12 [Compound 32-16]
Exercise: Of the pair P and Q , name the member with the lesser recorded pIC50. To answer, give the label that identifies your chosen option.
Key: Q
(Q: 7.18, P: 7.39)

[P] Cc1c(C(=O)NCCO)sc2ncnc(Nc3ccc(F)cc3OC(C)CF)c12 (stereo not shown) [Compound 32-27]
[Q] Cc1c(C(N)=O)sc2ncnc(Nc3cccnc3OCC(F)F)c12 [Compound 30-3]
Exercise: Just curious, which one has the larger pIC50 reading, P or Q ? Refer to your chosen entry by its label in the reply.
Key: P
(P: 8.15, Q: 7.74)
